B1: TPR 5TU (parent)
chain: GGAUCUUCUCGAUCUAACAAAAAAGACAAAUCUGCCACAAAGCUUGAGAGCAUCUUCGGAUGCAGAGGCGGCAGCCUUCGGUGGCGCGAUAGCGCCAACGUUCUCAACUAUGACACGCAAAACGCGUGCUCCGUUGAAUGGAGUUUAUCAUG

Variants of: B1
Assay: polymerase ribozyme fitness, log enrichment relative to wild type (log ratio); higher = more active; in vitro selection for triplet polymerase activity
Fewer inactive variants are shown than the library holds.
polymerase ribozyme fitness (log ratio) vs -2: at or above is condition met, below is condition not met.

Some entries whose results are on file:
G48C G59C A73G C76U C96U U101C; condition not met
C14A C38U; condition met
A16G C149G; condition not met
U4G U13A C57A A106C G136A; condition met
A91U C108U A113U C118U C149G; condition not met

Is the recorded value of polymerase ribozyme fitness (log ratio) equal to or greater than -2 for this variant? G50U U53A G58A A73G C79A C93A A107U C116G G136C
condition not met

U55G C93G ?
condition not met

Now give it for G83C A89U G124U too.
condition met

Ok, now A3G U13C A98U A107U
condition not met

Proceed to C5G C35U A52C G59C A106G C108A C114U A119U A122U G133U
condition not met

Entry to check: G88C A89C C95U
condition not met
